biological target: CDK9/cyclin K (Homo sapiens); construct: purchased Invitrogen (ThermoFisher) PV4335; assay: TR-FRET Lanthascreen Eu Kinase Binding assay; conditions: classifies curves by quality of fit, efficacy and number of asymptotes
Documented Curve Class across a set of compounds
The answer should be written as a number, with no unit following it.

stdin: Reported Curve Class for Oc1cc(CNC(=S)/C=C/c2cc(O)c(O)c(Br)c2)cc(O)c1O [NT 157] : what is it?
stdout: -1.4

stdin: Reported Curve Class for CC1(COc2ccc3c(c2)ncn3-c2ccc3cccc(N4CCC(N)CC4)c3n2)COC1 [CP-868596 (Crenolanib)] : what is it?
stdout: -1.1

stdin: Reported Curve Class for O=[N+]([O-])c1cccc2[nH]c(CNc3nc(N4CCOCC4)nc4c3ncn4-c3ccsc3)nc12 [NCGC00386926-01] : what is it?
stdout: -1.2

stdin: Reported Curve Class for COc1ccc(F)cc1-c1cc(NC(=O)[C@@H]2CCCNC2)ncc1Cl [CDK-IN-2] : what is it?
stdout: 5

stdin: Reported Curve Class for Cc1ccc([N+](=O)[O-])cc1[S+](=O)([O-])N(C)/N=C/c1cnc2ccc(Br)cn12 [NCGC00346500-05, PIK-75] : what is it?
stdout: 5

----------
target: CDK9/cyclin K (Homo sapiens); construct: purchased Invitrogen (ThermoFisher) PV4335; experiment: TR-FRET Lanthascreen Eu Kinase Binding assay; conditions: in %
Where a name gives a salt, the structure may show the parent alone.
endpoint_label: Max Resp
The answer should be written as a number, with no unit following it.

[
  {
    "compound": "O=C(NC1CCNCC1)c1[nH]ncc1NC(=O)c1c(Cl)cccc1Cl [AT7519]",
    "target_of_assay": "CDK9/cyclin K (Homo sapiens)",
    "Max Resp": -96.9
  },
  {
    "compound": "CN(C)CCCn1cc(C2=C(c3c[nH]c4ccccc34)C(=O)NC2=O)c2ccccc21 [GF109203X]",
    "target_of_assay": "CDK9/cyclin K (Homo sapiens)",
    "Max Resp": -74.0
  },
  {
    "compound": "CN1CCC(c2c(O)cc(O)c3c(=O)cc(-c4ccccc4Cl)oc23)C1CO (stereo not drawn) [Compound P276-00, P276-00]",
    "target_of_assay": "CDK9/cyclin K (Homo sapiens)",
    "Max Resp": -99.0
  },
  {
    "compound": "CC(C)c1nn(-c2c(Cl)cccc2Cl)c2nc(Cc3ccc(OCCO)cc3)[nH]c(=O)c12 [Cdk/Crk Inhibitor]",
    "target_of_assay": "CDK9/cyclin K (Homo sapiens)",
    "Max Resp": -99.2
  },
  {
    "compound": "Cc1n[nH]c2ccc(-c3cncc(OC[C@@H](N)Cc4c[nH]c5ccccc45)c3)cc12 [Compound A-443654, A-443654]",
    "target_of_assay": "CDK9/cyclin K (Homo sapiens)",
    "Max Resp": -96.6
  },
  {
    "compound": "CN(c1ncccc1CNc1nc(Nc2ccc3c(c2)CC(=O)N3)ncc1C(F)(F)F)[S+](C)(=O)[O-] [PF-562271]",
    "target_of_assay": "CDK9/cyclin K (Homo sapiens)",
    "Max Resp": -101.3
  },
  {
    "compound": "Cc1nc(N)sc1-c1ccnc(Nc2ccc(N3CCOCC3)cc2)n1 [CYC-116]",
    "target_of_assay": "CDK9/cyclin K (Homo sapiens)",
    "Max Resp": -90.5
  },
  {
    "compound": "N#CCNC(=O)c1ccc(-c2ccnc(Nc3ccc(N4CCOCC4)cc3)n2)cc1 [CYT-387]",
    "target_of_assay": "CDK9/cyclin K (Homo sapiens)",
    "Max Resp": -96.7
  },
  {
    "compound": "O=C1Nc2ccc(F)cc2/C1=C1\\Nc2ccccc2\\C1=N\\O [5 -Fluoroindirubinoxime]",
    "target_of_assay": "CDK9/cyclin K (Homo sapiens)",
    "Max Resp": -86.1
  },
  {
    "compound": "CCOC(=O)c1c(/C(C#N)=C\\N)c2ccc(Cl)c(Cl)c2n1C [KH-CB19]",
    "target_of_assay": "CDK9/cyclin K (Homo sapiens)",
    "Max Resp": -90.2
  }
]

stdin: Reported Max Resp for O=[N+]([O-])c1cccc2[nH]c(CNc3nc(N4CCOCC4)nc4c3ncn4-c3ccsc3)nc12 [NCGC00386926-01] : what is it?
stdout: -72.6

stdin: Reported Max Resp for N#C/C(=C1\Nc2ccccc2S1)c1ccnc(NCCc2cccnc2)n1 [AS601245] : what is it?
stdout: -85.8

stdin: Reported Max Resp for CCCCNc1ncc(C(=O)NCc2ccc(-n3ccnc3)cc2)c(NC2CCC(O)CC2)n1 (stereo in doubt) [UNC2881] : what is it?
stdout: -99.2

stdin: Reported Max Resp for COc1ccc(-c2cc3nccn3c(Nc3ncccc3C(N)=O)n2)cc1OC [BAY 61-3606 (dihydrochloride)] : what is it?
stdout: -92.1

stdin: Reported Max Resp for C[S+](=O)([O-])N1CCC(NC(=O)c2[nH]ncc2NC(=O)c2c(Cl)cccc2Cl)CC1 [NVP-LCQ195] : what is it?
stdout: -98.8

stdin: Reported Max Resp for Cc1ccc([N+](=O)[O-])cc1[S+](=O)([O-])N(C)/N=C\c1cnc2ccc(Br)cn12 [NCGC00387028-01, PIK-75] : what is it?
stdout: -93.4

stdin: Reported Max Resp for CC(C)c1cnn2c(NCc3ccccc3)cc(N[C@@H](CO)[C@H](O)CO)nc12 [BS194] : what is it?
stdout: -95.8

stdin: Reported Max Resp for O=C(NCCCNc1nc(Nc2cccc(NC(=O)N3CCCC3)c2)ncc1I)c1cccs1 [BX-795 hydrochloride] : what is it?
stdout: 5.8

stdin: Reported Max Resp for COCCOc1ccc2c(c1)ncn2-c1ccc2cccc(N3CCC(N)CC3)c2n1 [CP-673451] : what is it?
stdout: -91.2

stdin: Reported Max Resp for COc1ccc(F)cc1-c1cc(NC(=O)[C@@H]2CCCNC2)ncc1Cl [CDK-IN-2] : what is it?
stdout: -98.0

stdin: Reported Max Resp for CN(C)C/C=C/C(=O)Nc1cccc(C(=O)Nc2ccc(Nc3nccc(-c4cccnc4)n3)cc2)c1 [JNK-IN-7] : what is it?
stdout: -91.6

stdin: Reported Max Resp for COc1cc(F)ccc1-c1ncnc(Nc2cccc(C[S+](C)(=N)[O-])c2)n1 (stereo not drawn) [BAY-1143572] : what is it?
stdout: -100.3

stdin: Reported Max Resp for O=C1Nc2ccc3ncsc3c2/C1=C/Nc1ccc([S+](=O)([O-])Nc2ccccn2)cc1 [GW8510] : what is it?
stdout: -92.5

stdin: Reported Max Resp for Cn1cc(C2=C(c3cn(CCCSC(=N)N)c4ccccc34)C(=O)NC2=O)c2ccccc21 [Ro 31-8220 (mesylate)] : what is it?
stdout: -60.6

stdin: Reported Max Resp for O=C1NC(=O)/C(=C/c2ccc3nccc(-c4ccncc4)c3c2)S1 [GSK1059615] : what is it?
stdout: -91.2

stdin: Reported Max Resp for O=C(Nc1ccnc(NC(=O)C2CC2)c1)c1c(Cl)cccc1Cl [GDC-046] : what is it?
stdout: -94.2

stdin: Reported Max Resp for Cc1cc(Nc2cc(NC(=O)c3c(Cl)cccc3Cl)ccn2)nc(N)n1 [RO495] : what is it?
stdout: -99.1

----------
Documented Max Resp across a set of compounds
molecular target: CDK9/cyclin K (Homo sapiens, UniProt P50750); construct: purchased Invitrogen (ThermoFisher) PV4335; experiment: TR-FRET Lanthascreen Eu Kinase Binding assay; conditions: in %
Sequence (P50750 whole entry): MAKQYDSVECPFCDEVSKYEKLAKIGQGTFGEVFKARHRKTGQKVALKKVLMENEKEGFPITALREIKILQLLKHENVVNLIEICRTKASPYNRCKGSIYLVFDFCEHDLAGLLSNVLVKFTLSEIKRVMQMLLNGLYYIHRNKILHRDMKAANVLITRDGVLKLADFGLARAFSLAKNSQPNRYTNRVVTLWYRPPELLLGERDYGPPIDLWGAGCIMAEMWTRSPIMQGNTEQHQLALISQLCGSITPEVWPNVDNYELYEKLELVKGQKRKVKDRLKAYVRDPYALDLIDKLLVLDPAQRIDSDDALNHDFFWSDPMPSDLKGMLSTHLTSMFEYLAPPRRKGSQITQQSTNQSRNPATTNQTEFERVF
Sequence (O75909 whole entry partner): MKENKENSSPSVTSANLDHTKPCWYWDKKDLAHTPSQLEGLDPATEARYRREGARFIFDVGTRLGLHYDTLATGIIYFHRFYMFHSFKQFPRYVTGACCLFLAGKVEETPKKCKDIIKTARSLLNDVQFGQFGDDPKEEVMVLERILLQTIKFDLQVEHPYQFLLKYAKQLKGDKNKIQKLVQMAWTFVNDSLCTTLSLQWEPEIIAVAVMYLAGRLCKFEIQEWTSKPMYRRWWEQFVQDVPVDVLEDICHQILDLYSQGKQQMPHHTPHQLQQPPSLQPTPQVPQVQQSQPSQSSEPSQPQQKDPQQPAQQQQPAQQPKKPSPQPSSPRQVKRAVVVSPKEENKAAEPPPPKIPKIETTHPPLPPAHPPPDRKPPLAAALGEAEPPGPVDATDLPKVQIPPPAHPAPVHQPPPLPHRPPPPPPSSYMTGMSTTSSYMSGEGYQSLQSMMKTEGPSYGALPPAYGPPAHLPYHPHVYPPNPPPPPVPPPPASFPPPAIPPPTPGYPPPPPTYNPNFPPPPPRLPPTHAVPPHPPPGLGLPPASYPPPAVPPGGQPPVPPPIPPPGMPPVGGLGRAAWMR
Counter-ions that a name gives are not always drawn.
The answer should be written as a number, with no unit following it.

[
  {
    "compound": "Cc1ncc(-c2ccnc(Nc3ccc(S(C)(=O)=O)cc3)n2)n1C(C)C",
    "Max Resp": -98.3
  },
  {
    "compound": "CC(=O)c1c(C)c2cnc(Nc3ccc(N4CCNCC4)cn3)nc2n(C2CCCC2)c1=O [Palbociclib (PD-0332991) HCl]",
    "Max Resp": -91.0
  }
]

stdin: Reported Max Resp for Cc1ccc([N+](=O)[O-])cc1[S+](=O)([O-])N(C)/N=C/c1cnc2ccc(Br)cn12 : what is it?
stdout: -95.2

----------
target: CDK9/cyclin K (Homo sapiens, UniProt P50750); construct: purchased Invitrogen (ThermoFisher) PV4335; test: TR-FRET Lanthascreen Eu Kinase Binding assay; conditions: concentration at which half maximal activity is observed; 7-point qHTS; read-out: AC50
endpoint_label: AC50 (nM)
Supply the numeric figure in nM, leaving out any unit text.

The examples below pair each entry with its known result.
[
  {
    "compound": "N#Cc1ccnc(Nc2cc(C3CCN(C4COC4)CC3)cc(N3CCC(F)(F)C3)n2)c1 [NCGC00384250-01]",
    "target_of_assay": "CDK9/cyclin K (Homo sapiens, UniProt P50750)",
    "AC50, nM": 189
  },
  {
    "compound": "C[C@@H](Oc1ccc2[nH]nc(/C=C/c3cnn(CCO)c3)c2c1)c1c(Cl)cncc1Cl [LY2874455]",
    "target_of_assay": "CDK9/cyclin K (Homo sapiens, UniProt P50750)",
    "AC50, nM": 299
  },
  {
    "compound": "O=C(Nc1ccnc(NC(=O)C2CC2)c1)c1c(Cl)cccc1Cl [GDC-046]",
    "target_of_assay": "CDK9/cyclin K (Homo sapiens, UniProt P50750)",
    "AC50, nM": 33.6
  }
]

stdin: Provide value of AC50 for this record tested with CDK9/cyclin K (Homo sapiens, UniProt P50750): O=C1Cc2c([nH]c3ccc(Br)cc23)-c2ccccc2N1 [Kenpaullone]
stdout: 336

stdin: Provide value of AC50 for this record tested with CDK9/cyclin K (Homo sapiens, UniProt P50750): COc1ccc(CNc2nc(N(CCO)CCO)nc3c2ncn3C(C)C)cc1 [CVT-313]
stdout: 532

stdin: Provide value of AC50 for this record tested with CDK9/cyclin K (Homo sapiens, UniProt P50750): CN1CCN(Cc2ccc(Nc3ncc(Cl)c(Nc4ccccc4S(=O)(=O)N(C)C)n3)cc2)CC1 [TP-0903]
stdout: 68.7

stdin: Provide value of AC50 for this record tested with CDK9/cyclin K (Homo sapiens, UniProt P50750): COCCOc1ccc2c(c1)ncn2-c1ccc2cccc(N3CCC(N)CC3)c2n1 [CP-673451]
stdout: 150

stdin: Provide value of AC50 for this record tested with CDK9/cyclin K (Homo sapiens, UniProt P50750): CC(=O)N1CCN(C(=O)Cc2ccc(Nc3ncc(F)c(Nc4ccc(C(=O)Nc5ccccc5Cl)cc4)n3)cc2)CC1 [Aurora A inhibitor II]
stdout: 947

Data provenance is paper PMC6013488.
